- testedTarget: CDK5/p35 (Homo sapiens, UniProt Q00535)
- Construct: purified CDK5/p35 complex
- Sequence (Q00535 whole entry): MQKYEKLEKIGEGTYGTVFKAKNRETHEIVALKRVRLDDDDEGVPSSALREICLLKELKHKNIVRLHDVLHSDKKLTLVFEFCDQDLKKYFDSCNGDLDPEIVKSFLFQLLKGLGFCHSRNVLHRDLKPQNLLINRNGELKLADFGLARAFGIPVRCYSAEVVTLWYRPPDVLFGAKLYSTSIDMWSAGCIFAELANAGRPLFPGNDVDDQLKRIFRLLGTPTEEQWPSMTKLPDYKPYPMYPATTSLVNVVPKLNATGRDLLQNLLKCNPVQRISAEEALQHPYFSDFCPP
- Sequence (Q15078 2-307 partner): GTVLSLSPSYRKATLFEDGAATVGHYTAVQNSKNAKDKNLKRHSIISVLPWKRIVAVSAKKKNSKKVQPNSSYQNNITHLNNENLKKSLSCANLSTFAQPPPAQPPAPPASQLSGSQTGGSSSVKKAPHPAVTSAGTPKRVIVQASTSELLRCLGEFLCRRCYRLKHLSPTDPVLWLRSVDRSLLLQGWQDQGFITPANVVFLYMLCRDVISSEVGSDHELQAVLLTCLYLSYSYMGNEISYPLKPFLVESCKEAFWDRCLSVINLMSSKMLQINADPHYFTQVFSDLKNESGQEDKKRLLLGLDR
- experiment: […]-ATP radiometric filter-binding kinase assay
- Type: biochemical
- experimentalParameters: read-out: Compound 1
assayReadout: IC50 (µM)

{"smilesStr": "CC(C)n1cnc(NC(=O)Cc2ccccc2)c1", "testedTarget": "CDK5/p35 (Homo sapiens, UniProt Q00535)", "assayReadout": "IC50", "valueUnits": "µM", "experimentalResult": 40}

* * *

- testedTarget: CDK5/p35 (Homo sapiens, UniProt Q00535)
- Construct: purified CDK5/p35 complex
- experiment: […]-ATP radiometric filter-binding kinase assay
- Format: biochemical
- experimentalParameters: read-out: Compound 3

{"compound": "CC(C(=O)Nc1cn(C(C)C)cn1)c1ccccc1 (racemic)", "testedTarget": "CDK5/p35 (Homo sapiens, UniProt Q00535)", "IC50 / µM": 79}

* * *

- testedTarget: CDK2/cyclin E (Homo sapiens, UniProt P24941)
- Construct: purified CDK/cyclin complex; with G1/S-specific cyclin-E1
- experiment: […]-ATP radiometric filter-binding kinase assay
- Format: biochemical
- experimentalParameters: read-out: Compound 4
pIC50: −log10 of the molar value.
assayReadout: pIC50

{"compound": "CC(C)n1cnc(NC(=O)Cc2ccccn2)c1 [compound 4, Compound 4]", "assayReadout": "pIC50", "experimentalResult": 6.57}

* * *

- testedTarget: CDK9/cyclin K (Homo sapiens, UniProt P50750)
- Construct: purified CDK9/cyclin K complex; with Cyclin-K
- Sequence (P50750 whole entry): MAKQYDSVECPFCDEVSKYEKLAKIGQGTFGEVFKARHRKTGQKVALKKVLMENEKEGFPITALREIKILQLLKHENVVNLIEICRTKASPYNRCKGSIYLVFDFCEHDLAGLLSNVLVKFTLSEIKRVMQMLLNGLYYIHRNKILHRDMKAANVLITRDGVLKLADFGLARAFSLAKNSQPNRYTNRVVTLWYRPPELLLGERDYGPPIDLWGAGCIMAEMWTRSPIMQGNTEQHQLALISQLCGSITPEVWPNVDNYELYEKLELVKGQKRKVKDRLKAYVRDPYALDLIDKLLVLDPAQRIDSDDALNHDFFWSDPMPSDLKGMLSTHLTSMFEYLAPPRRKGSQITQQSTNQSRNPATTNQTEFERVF
- Sequence (O75909 whole entry partner): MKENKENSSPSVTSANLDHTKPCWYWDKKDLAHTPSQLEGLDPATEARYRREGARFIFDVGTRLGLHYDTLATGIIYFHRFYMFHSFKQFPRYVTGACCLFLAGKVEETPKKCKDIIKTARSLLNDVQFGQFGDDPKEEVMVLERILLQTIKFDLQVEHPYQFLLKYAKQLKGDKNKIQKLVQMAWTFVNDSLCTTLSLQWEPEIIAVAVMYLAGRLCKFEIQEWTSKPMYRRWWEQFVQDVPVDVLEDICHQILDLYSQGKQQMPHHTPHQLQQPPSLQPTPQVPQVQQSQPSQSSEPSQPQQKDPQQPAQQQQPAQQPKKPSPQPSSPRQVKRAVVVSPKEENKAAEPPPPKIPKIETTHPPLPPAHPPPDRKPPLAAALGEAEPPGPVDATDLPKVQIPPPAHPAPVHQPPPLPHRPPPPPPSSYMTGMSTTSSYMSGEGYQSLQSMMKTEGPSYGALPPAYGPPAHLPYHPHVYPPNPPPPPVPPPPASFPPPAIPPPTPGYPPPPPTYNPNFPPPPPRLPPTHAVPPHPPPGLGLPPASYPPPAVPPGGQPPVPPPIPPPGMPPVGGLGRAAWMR
- experiment: […]-ATP radiometric filter-binding kinase assay
- Assay type: biochemical
- experimentalParameters: read-out: Compound 2
pIC50: −log10 of the molar value.
assayReadout: pIC50

{"molecule": "CC(C)n1cnc(NC(=O)Cc2ccccc2O)c1 [compound 2, Compound 2]", "experimentalResult": 6.00}

* * *

- testedTarget: CDK5/p35 (Homo sapiens)
- Construct: purified CDK5/p35 complex
- experiment: […]-ATP radiometric filter-binding kinase assay
- Type: biochemical
- experimentalParameters: read-out: Compound 2
pIC50: −log10 of the molar value.

{"molecule": "CC(C)n1cnc(NC(=O)Cc2ccccc2O)c1 [compound 2, Compound 2]", "pIC50": 6.06}

* * *

- testedTarget: CDK1/cyclin E (Homo sapiens, UniProt P06493)
- Construct: purified CDK/cyclin complex; with G1/S-specific cyclin-E1
- Sequence (P06493 whole entry): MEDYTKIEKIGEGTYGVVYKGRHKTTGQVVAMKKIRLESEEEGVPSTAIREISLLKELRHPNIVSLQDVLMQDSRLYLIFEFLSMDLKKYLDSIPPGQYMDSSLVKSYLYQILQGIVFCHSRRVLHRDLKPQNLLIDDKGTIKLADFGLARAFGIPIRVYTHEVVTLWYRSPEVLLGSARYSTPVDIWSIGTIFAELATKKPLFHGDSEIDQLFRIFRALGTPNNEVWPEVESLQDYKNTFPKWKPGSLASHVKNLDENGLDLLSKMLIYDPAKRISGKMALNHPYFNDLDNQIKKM
- Sequence (P24864 whole entry partner): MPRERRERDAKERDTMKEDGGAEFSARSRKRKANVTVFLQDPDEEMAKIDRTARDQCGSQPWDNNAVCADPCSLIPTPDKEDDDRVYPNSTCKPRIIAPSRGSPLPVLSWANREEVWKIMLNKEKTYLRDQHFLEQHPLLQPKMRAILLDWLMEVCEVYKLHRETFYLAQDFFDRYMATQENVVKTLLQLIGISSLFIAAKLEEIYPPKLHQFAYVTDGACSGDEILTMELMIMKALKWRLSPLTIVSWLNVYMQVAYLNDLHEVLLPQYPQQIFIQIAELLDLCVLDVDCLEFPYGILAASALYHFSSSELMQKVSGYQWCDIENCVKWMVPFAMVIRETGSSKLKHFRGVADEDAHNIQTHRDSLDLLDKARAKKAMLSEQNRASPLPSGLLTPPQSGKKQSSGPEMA
- experiment: […]-ATP radiometric filter-binding kinase assay
- Assay type: biochemical
- experimentalParameters: read-out: Compound 1

{"smilesStr": "CC(C)n1cnc(NC(=O)Cc2ccccc2)c1", "testedTarget": "CDK1/cyclin E (Homo sapiens, UniProt P06493)", "IC50 / µM": 14}

* * *

- testedTarget: CDK2/cyclin E (Homo sapiens, UniProt P24941)
- Construct: purified CDK/cyclin complex; with G1/S-specific cyclin-E1
- experiment: […]-ATP radiometric filter-binding kinase assay
- Assay type: biochemical
- experimentalParameters: read-out: Compound 3
pIC50: −log10 of the molar value.

{"compound": "CC(C(=O)Nc1cn(C(C)C)cn1)c1ccccc1 (racemic) [compound 3, Compound 3]", "pIC50": 5.92}

* * *

- testedTarget: CDK9/cyclin K (Homo sapiens)
- Construct: purified CDK9/cyclin K complex; with Cyclin-K
- experiment: […]-ATP radiometric filter-binding kinase assay
- Type: biochemical
- experimentalParameters: read-out: Compound 1

{"molecule": "CC(C)n1cnc(NC(=O)Cc2ccccc2)c1 [compound 1, Compound 1]", "testedTarget": "CDK9/cyclin K (Homo sapiens)", "IC50": "3 µM"}
